- System: Candida albicans
- condition-set: 20 µM
- Description: Antifungal activity against Candida albicans ATCC 90028 (CO-ADD:FG_001); MIC in YNB media using NBS plates, by OD630
Entries with a potency or affinity are not part of this list.
This section presents compounds with their documented Inhibition values.
experimental-readout: Inhibition

[[record]]
compound = "COc1cc(-c2ccc(=O)[nH]n2)ccc1OC(F)F [ZARDAVERINE]"
experimental_readout = "Inhibition"
value_observed = "1.79%"

[[record]]
compound = "C[N+]1(C)CCC(OC(=O)C(O)(c2ccccc2)C2CCCC2)C1.[Br-] (configuration not stated) [GLYCOPYRRONIUM BROMIDE]"
experimental_readout = "Inhibition"
value_observed = "3.65%"

[[record]]
compound = "COc1cc([C@@H]2c3cc4c(cc3[C@H](O)[C@H]3COC(=O)[C@H]23)OCO4)cc(OC)c1OC [PODOFILOX]"
experimental_readout = "Inhibition"
value_observed = "0.66%"

[[record]]
compound = "C[C@H](CCC(=O)O)[C@H]1CC[C@H]2[C@@H]3[C@@H](O)C[C@@H]4C[C@H](O)CC[C@]4(C)[C@H]3CC[C@]12C [URSODIOL]"
experimental_readout = "Inhibition"
value_observed = "3.21%"

[[record]]
compound = "C[N+]1(CCC(C(N)=O)(c2ccccc2)c2ccccc2)CCCCC1.[Br-] [FENPIVERINIUM BROMIDE]"
experimental_readout = "Inhibition"
value_observed = "3.32%"

[[record]]
compound = "CC(O)(CS(=O)(=O)c1ccc(F)cc1)C(=O)Nc1ccc(C#N)c(C(F)(F)F)c1 (configuration not stated) [BICALUTAMIDE]"
experimental_readout = "Inhibition"
value_observed = "-0.48%"

[[record]]
compound = "CN1C(=O)CN=C(c2ccccc2)c2cc([N+](=O)[O-])ccc21 [NIMETAZEPAM]"
experimental_readout = "Inhibition"
value_observed = "0.89%"

[[record]]
compound = "CC(=O)OCC[N+](C)(C)C.[Cl-] [ACETYLCHOLINE CHLORIDE]"
experimental_readout = "Inhibition"
value_observed = "1.39%"

[[record]]
compound = "CN1C(=O)COc2c(C(=O)NC3CN4CCC3CC4)cc(Cl)cc21.Cl (configuration not stated)"
experimental_readout = "Inhibition"
value_observed = "2.68%"

[[record]]
compound = "Cl.NCCc1ccc(O)c(O)c1 [DOPAMINE HYDROCHLORIDE]"
experimental_readout = "Inhibition"
value_observed = "-0.19%"

[[record]]
compound = "COc1ccc(CCN)cc1OC"
experimental_readout = "Inhibition"
value_observed = "2.72%"

[[record]]
compound = "CS(=O)(=O)O.O=C(O[C@@H]1C[C@@H]2C[C@H]3C[C@H](C1)N2CC3=O)c1c[nH]c2ccccc12"
experimental_readout = "Inhibition"
value_observed = "2.39%"

[[record]]
compound = "CN1CC[C@@]23CCCC[C@@H]2[C@@H]1Cc1ccc(O)cc13.O=C(O)C(O)C(O)C(=O)O"
experimental_readout = "Inhibition"
value_observed = "2.27%"

[[record]]
compound = "CN1CCC[C@H]1c1cccnc1 [NICOTINE]"
experimental_readout = "Inhibition"
value_observed = "1.61%"

[[record]]
compound = "c1cncc([C@@H]2CCCN2)c1 [NORNICOTINE]"
experimental_readout = "Inhibition"
value_observed = "3.55%"

[[record]]
compound = "COc1cc2c(cc1OC)[C@@]13CCN4CC5=CCO[C@H]6CC(=O)N2[C@H]1[C@H]6[C@H]5C[C@H]43 [BRUCINE]"
experimental_readout = "Inhibition"
value_observed = "2.36%"

[[record]]
compound = "CCCN1C[C@H](CSC)C[C@@H]2c3cccc4[nH]cc(c34)C[C@H]21.CS(=O)(=O)O [PERGOLIDE MESYLATE]"
experimental_readout = "Inhibition"
value_observed = "2.85%"

